// data source = patent US20230114728A1

Tested on: E. coli ATCC 25922
Experiment: Broth microdilution MIC in CAMHB
Format: cell-based
Details: Escherichia coli, ATCC25922; E. coli ATCC 25922; MHB; read-out: Minimum Inhibitory Concentration, E. coli 25922
Text: Example III: In Vitro Antibacterial Assays To determine the ability of test compounds to inhibit the growth of bacterial strains, classic cell based broth microdilution minimum inhibitory concentration (MIC) assays were employed. […] Briefly, cryo-preserved bacterial cultures of challenge strains are streaked for isolation on appropriate agar medium, in this case cation-adjusted Mueller Hinton agar. […] The MIC values are read visually as the lowest concentration well with no bacterial growth.
MIC values, listed per item

Some entries whose results are on file:
| compound | tested-on | MIC |
| --- | --- | --- |
| CCN1CCN(C(=O)N[C@@H](C(=O)N[C@H]2Cc3cccc(C(=O)O)c3OB2O)c2ccc(C(=O)O)cc2O)C(=O)C1=O (single isomer, unassigned) | E. coli ATCC 25922 | 32 to 64 µg/mL |
| CCN1CCN(C(=O)NC(C(=O)N[C@H]2Cc3cccc(C(=O)O)c3OB2O)c2cccc(S(N)(=O)=O)c2)C(=O)C1=O (stereo partly drawn) | E. coli ATCC 25922 | 32 to 64 µg/mL |
| CCN1CCN(C(=O)NC(C(=O)N[C@H]2Cc3cccc(C(=O)O)c3OB2O)c2cc(O)ccc2O)C(=O)C1=O (stereo partly drawn) | E. coli ATCC 25922 | > 128 µg/mL |
| NS(=O)(=O)Nc1ccc(F)c([C@H](NC(=O)N2CCN(CC(F)(F)F)C(=O)C2=O)C(=O)N[C@H]2Cc3cccc(C(=O)O)c3OB2O)c1 (single isomer, unassigned) | E. coli ATCC 25922 | > 128 µg/mL |
| CCN1CCN(C(=O)NC(C(=O)N[C@H]2Cc3cccc(C(=O)O)c3OB2O)c2c(F)c(F)c(O)c(F)c2F)C(=O)C1=O (stereo partly drawn) | E. coli ATCC 25922 | 32 to 64 µg/mL |
| O=C(Nc1ccccc1)NC(C(=O)N[C@H]1Cc2ccc(F)c(C(=O)O)c2OB1O)c1ncc(O)cc1F (stereo partly drawn) | E. coli ATCC 25922 | > 128 µg/mL |
| CCN1CCN(C(=O)N[C@@H](C(=O)N[C@H]2Cc3cccc(C(=O)O)c3OB2O)c2ccc(C(=O)O)c(Cl)c2)C(=O)C1=O (single isomer, unassigned) | E. coli ATCC 25922 | 32 to 64 µg/mL |
| CCN1CCN(C(=O)NC(C(=O)N[C@H]2Cc3cccc(C(=O)O)c3OB2O)c2c(F)cc(NS(N)(=O)=O)cc2F)C(=O)C1=O (stereo partly drawn) | E. coli ATCC 25922 | 32 to 64 µg/mL |

Could you now look at the following compound, please?
Recorded result, NCCN1CCN(C(=O)N[C@@H](C(=O)N[C@H]2Cc3cccc(C(=O)O)c3OB2O)c2ccc(O)c(Cl)c2F)C(=O)C1=O (single isomer, unassigned) , MIC: 8 to 16 µg/mL

---

MIC values, listed per item
System: E. coli 901C
Test: Broth microdilution MIC in CAMHB
Assay type: cell-based
Settings: Escherichia coli; E. coli 901C (hyper-permeable); MHB; read-out: Minimum Inhibitory Concentration, E. coli 901C

Some entries whose results are on file:
| molecule | MIC |
| --- | --- |
| NC1(CN2CCN(C(=O)NC(C(=O)N[C@H]3Cc4cccc(C(=O)O)c4OB3O)c3cccc(NS(N)(=O)=O)c3)C(=O)C2=O)CC1 (stereo partly drawn) [Example 120] | 2 to 4 µg/mL |
| CCN1CCN(C(=O)NC(C(=O)N[C@H]2Cc3cccc(C(=O)O)c3OB2O)c2ccc(C(=O)O)c([N+](=O)[O-])c2)C(=O)C1=O (stereo partly drawn) [Example 220] | > 128 µg/mL |
| CCN1CCN(C(=O)NC(C(=O)N[C@H]2Cc3cccc(C(=O)O)c3OB2O)c2cccc(CN)c2)C(=O)C1=O (stereo partly drawn) [Example 108] | 2 to 4 µg/mL |

Recorded result, O=C(O)c1cccc2c1OB(O)[C@@H](NC(=O)C(NC(=O)N1CCN(CCF)C(=O)C1=O)c1c(F)cc(O)cc1F)C2 (mixture of isomers) [Example 119] , MIC: < 0.25 µg/mL

Recorded result, NCCN1CCN(C(=O)N[C@H](C(=O)N[C@H]2Cc3cccc(C(=O)O)c3OB2O)c2cc(F)c(O)c(F)c2F)C(=O)C1=O (single isomer, unassigned) [Example 167] , MIC: 2 to 4 µg/mL

Recorded result, NCCN1CCN(C(=O)N[C@@H](C(=O)N[C@H]2Cc3cccc(C(=O)O)c3OB2O)c2cc(Cl)c(O)cc2Cl)C(=O)C1=O [Example 90] , MIC: 0.5 to 1 µg/mL

Recorded result, CCN1CCN(C(=O)N[C@H](C(=O)N[C@H]2Cc3cccc(C(=O)O)c3OB2O)c2ccc(C(=O)O)c(F)c2Cl)C(=O)C1=O (single isomer, unassigned) [Example 202] , MIC: 0.5 to 1 µg/mL

Recorded result, CCN1CCN(C(=O)NC(C(=O)N[C@H]2Cc3cccc(C(=O)O)c3OB2O)c2ccc(C(=O)O)c(O)c2)C(=O)C1=O (stereo partly drawn) [Example 196] , MIC: < 0.25 µg/mL

---

Reported MIC, K. pneumoniae 848844 producing SHV-11 and KPC-2.

| compound | observed-value |
| --- | --- |
| C[C@H]1CN(CCNC(=O)c2ccc(O)c(O)c2Cl)C(=O)C(=O)N1C(=O)NC(C(=O)N[C@H]1Cc2cccc(C(=O)O)c2OB1O)c1ncc(O)cc1F (some centres unmarked) | 8 to 16 µg/mL |
| CCN1CCN(C(=O)NC(C(=O)N[C@H]2Cc3cccc(C(=O)O)c3OB2O)c2cc(Cl)c(C(=O)O)cc2F)C(=O)C1=O (some centres unmarked) | > 128 µg/mL |

// MIC (K. pneumoniae 848844 producing SHV-11 and KPC-2) for "C[C@H]1CN(CCN)C(=O)C(=O)N1C(=O)N[C@@H](C(=O)N[C@H]1Cc2cccc(C(=O)O)c2OB1O)c1ncc(O)cc1F" = 32 to 64 µg/mL

// MIC (K. pneumoniae 848844 producing SHV-11 and KPC-2) for NCCN1CCN(C(=O)N[C@H](C(=O)N[C@H]2Cc3cccc(C(=O)O)c3OB2O)c2ccc(O)c([N+](=O)[O-])c2)C(=O)C1=O (single isomer, unassigned) = > 128 µg/mL

// MIC (K. pneumoniae 848844 producing SHV-11 and KPC-2) for NCCN1CCN(C(=O)N[C@H](C(=O)N[C@H]2Cc3cccc(C(=O)O)c3OB2O)c2c(F)cccc2F)C(=O)C1=O (single isomer, unassigned) = > 128 µg/mL

// MIC (K. pneumoniae 848844 producing SHV-11 and KPC-2) for CCN1CCN(C(=O)N[C@H](C(=O)N[C@H]2Cc3cccc(C(=O)O)c3OB2O)c2ccc(C(=O)O)c(F)c2)C(=O)C1=O (single isomer, unassigned) = > 128 µg/mL

// MIC (K. pneumoniae 848844 producing SHV-11 and KPC-2) for O=C(O)c1cccc2c1OB(O)[C@@H](NC(=O)C(NC(=O)N1CCNC1=O)c1c(F)cc(O)cc1F)C2 (some centres unmarked) = 32 to 64 µg/mL

// MIC (K. pneumoniae 848844 producing SHV-11 and KPC-2) for NS(=O)(=O)Nc1ccc(F)c([C@H](NC(=O)N2CCN(CC(F)(F)F)C(=O)C2=O)C(=O)N[C@H]2Cc3cccc(C(=O)O)c3OB2O)c1 (single isomer, unassigned) = > 128 µg/mL

// MIC (K. pneumoniae 848844 producing SHV-11 and KPC-2) for CCN1CCN(C(=O)N[C@@H](C(=O)N[C@H]2Cc3cccc(C(=O)O)c3OB2O)c2c(O)cc(O)cc2F)C(=O)C1=O (single isomer, unassigned) = 32 to 64 µg/mL

// MIC (K. pneumoniae 848844 producing SHV-11 and KPC-2) for CS(=O)(=O)N1CCN(C(=O)N[C@H](C(=O)N[C@H]2Cc3cccc(C(=O)O)c3OB2O)c2c(F)cc(O)cc2F)C1=O (single isomer, unassigned) = > 128 µg/mL

// MIC (K. pneumoniae 848844 producing SHV-11 and KPC-2) for CCN1CCN(C(=O)NC(C(=O)N[C@H]2Cc3cccc(C(=O)O)c3OB2O)c2cncc(O)c2)C(=O)C1=O (some centres unmarked) = > 128 µg/mL

// MIC (K. pneumoniae 848844 producing SHV-11 and KPC-2) for NC1(CN2CCN(C(=O)N[C@H](C(=O)N[C@H]3Cc4cccc(C(=O)O)c4OB3O)c3c(F)cc(O)cc3F)C(=O)C2=O)CC1 (single isomer, unassigned) = > 128 µg/mL

// MIC (K. pneumoniae 848844 producing SHV-11 and KPC-2) for CCN1CCN(C(=O)NC(C(=O)N[C@H]2Cc3cccc(C(=O)O)c3OB2O)c2cc(NS(N)(=O)=O)ccc2F)C(=O)C1=O (some centres unmarked) = > 128 µg/mL

// MIC (K. pneumoniae 848844 producing SHV-11 and KPC-2) for NCCN1CCN(C(=O)NC(C(=O)N[C@H]2Cc3cccc(C(=O)O)c3OB2O)c2cc(F)c(O)cc2Cl)C(=O)C1=O (some centres unmarked) = > 128 µg/mL

// MIC (K. pneumoniae 848844 producing SHV-11 and KPC-2) for CCN1CCN(C(=O)NC(C(=O)N[C@H]2Cc3cccc(C(=O)O)c3OB2O)c2cc(F)c(C(=O)O)cc2F)C(=O)C1=O (some centres unmarked) = > 128 µg/mL

// MIC (K. pneumoniae 848844 producing SHV-11 and KPC-2) for CCN1CCN(C(=O)NC(C(=O)N[C@H]2Cc3cccc(C(=O)O)c3OB2O)c2cccc(NC(=O)c3ccc(O)c(O)c3Cl)c2)C(=O)C1=O (some centres unmarked) = 8 to 16 µg/mL

// MIC (K. pneumoniae 848844 producing SHV-11 and KPC-2) for CCN1CCN(C(=O)N[C@H](C(=O)N[C@H]2Cc3cccc(C(=O)O)c3OB2O)c2ccc(C(=O)O)c(Cl)c2)C(=O)C1=O (single isomer, unassigned) = > 128 µg/mL

// MIC (K. pneumoniae 848844 producing SHV-11 and KPC-2) for CCN1CCN(C(=O)NC(C(=O)N[C@H]2Cc3cccc(C(=O)O)c3OB2O)c2ccc(O)c(NC(C)=O)c2)C(=O)C1=O (some centres unmarked) = > 128 µg/mL

// MIC (K. pneumoniae 848844 producing SHV-11 and KPC-2) for CCN1CCN(C(=O)N[C@@H](C(=O)N[C@H]2Cc3cccc(C(=O)O)c3OB2O)c2ccc(C(=O)O)cc2)C(=O)C1=O (single isomer, unassigned) = > 128 µg/mL

// MIC (K. pneumoniae 848844 producing SHV-11 and KPC-2) for CCN1CCN(C(=O)NC(C(=O)N[C@H]2Cc3cccc(C(=O)O)c3OB2O)c2ccc(O)cc2OC)C(=O)C1=O (some centres unmarked) = > 128 µg/mL

// MIC (K. pneumoniae 848844 producing SHV-11 and KPC-2) for NCCN1CCN(C(=O)N[C@H](C(=O)N[C@H]2Cc3cccc(C(=O)O)c3OB2O)c2ccc(O)c(Cl)c2F)C(=O)C1=O (single isomer, unassigned) = > 128 µg/mL

// MIC (K. pneumoniae 848844 producing SHV-11 and KPC-2) for NCCCN1CCN(C(=O)NC(C(=O)N[C@H]2Cc3cccc(C(=O)O)c3OB2O)c2ccc(C(N)=O)c(O)c2)C(=O)C1=O (some centres unmarked) = > 128 µg/mL

// MIC (K. pneumoniae 848844 producing SHV-11 and KPC-2) for NCCCN1CCN(C(=O)N[C@@H](C(=O)N[C@H]2Cc3cccc(C(=O)O)c3OB2O)c2cc(F)c(O)c(F)c2F)C(=O)C1=O (single isomer, unassigned) = > 128 µg/mL
